Listed below: MIC values for each entry.
- Test system: Akkermansia muciniphila EB-AMDK19
- protocol.description: MIC by broth microdilution (CLSI), isolated strain
- Type: cell-based
- experimental.conditions: Akkermansia muciniphila, EBAMDK19; test strain EB-AMDK19, broth microdilution
Value expressed in µg/mL; do not type the unit.

molecule | tgt | MIC [µg/mL]
CO/N=C(\C(=O)N[C@@H]1C(=O)N2C(C(=O)O)=CCS[C@H]12)c1csc(N)n1 [CTZ, ceftizoxime] | Akkermansia muciniphila EB-AMDK19 | 1
O=C(N[C@H](CO)[C@H](O)c1ccc([N+](=O)[O-])cc1)C(Cl)Cl [CHL, chloramphenicol] | Akkermansia muciniphila EB-AMDK19 | 4
C[C@@H](O)[C@H]1C(=O)N2C(C(=O)O)=C(S[C@@H]3CN[C@H](C(=O)N(C)C)C3)[C@H](C)[C@H]12 [MEM, meropenem] | Akkermansia muciniphila EB-AMDK19 | 0.5
Cc1ncc([N+](=O)[O-])n1CCO [MTZ, metronidazole] | Akkermansia muciniphila EB-AMDK19 | 0.5

Now look at this entry.
Write down MIC measured for item CCC[C@@H]1C[C@@H](C(=O)N[C@@H]([C@H]2O[C@H](SC)[C@H](O)[C@@H](O)[C@H]2O)[C@H](C)Cl)N(C)C1 [CLI, clindamycin] 4
